Sourced from the supplement of paper PMC11451515

Test system: P12-Ichikawa
Assay protocol: cell viability relative to DMSO control; higher = less cytotoxic
Protocol conditions: RPMI 5 mM glucose + 10% FBS; 48 h; 0.00234 µM
Give cell viability for every item shown.
Please give a number only; it is taken to be in %.

Return cell viability (reported value) for this molecule: CC[C@H]1OC(=O)[C@H](C)[C@@H](O[C@H]2C[C@@](C)(OC)[C@@H](O)[C@H](C)O2)[C@H](C)[C@@H](O[C@@H]2O[C@@H](C)C[C@H](N(C)C)[C@H]2O)[C@](C)(O)C[C@@H](C)C(=O)[C@H](C)[C@@H](O)[C@]1(C)O
87

Return the recorded cell viability value; entry: COc1cc2ncnc(-n3nc(-c4ccccn4)nc3N)c2cc1OC
100

Answer with the recorded cell viability of COc1nc(-c2ccc3c(c2)OCO3)n(-c2ccc(NC(=O)CSc3ccccc3)cc2)n1 only.
116

Give cell viability for Cc1ccc(-n2nc(C(C)(C)C)cc2NC(=O)Nc2ccc(OCCN3CCOCC3)c3ccccc23)cc1
107

Give the value of cell viability reported for the following: CC(=O)N1CCN(c2ccc(OCc3nn(C)c(C)c3-c3cccc4c(CCCOc5cc(C)c(Cl)c(C)c5)c(C(=O)O)n(Cc5cccnc5)c34)cc2)CC1
106

Fill in cell viability for record COc1cc2nccc(Oc3ccc(NC(=O)C4(C(=O)Nc5ccc(F)cc5)CC4)cc3)c2cc1OC
112

Supply recorded cell viability for CCCCN(CCCC)CCC(O)c1cc2c(Cl)cc(Cl)cc2c2cc(C(F)(F)F)ccc12 (stereo not given) here.
126

Supply reported cell viability belonging to this molecule: Cc1ccc(NC(=O)C2(c3ccc4c(c3)OC(F)(F)O4)CC2)nc1-c1cccc(C(=O)O)c1
98.6

Consider the molecule O=C/1\C=C(/OC(=C1)/C2=C3SC4=C(SC3=CC=C2)C=CC=C4)N5CCOCC5 and give its recorded cell viability.
92.7

Give me measured cell viability, please, for this molecule: Cl.c1cnc2cc3c(cc2n1)C1CNCC3C1
115

---

Tested on: NOMO1
Assay protocol: cell viability relative to DMSO control; higher = less cytotoxic
Protocol conditions: RPMI 5 mM glucose + 10% FBS; 48 h; 0.0632 µM
Lab note: anything with cell viability below 90% is marked criterion met; values at 90% or higher are marked criterion not met.

is_below(cell viability, 90%) for COc1cc2c(N3CCN(C(=O)Nc4ccc(OC(C)C)cc4)CC3)ncnc2cc1OCCCN1CCCCC1 ?
criterion met

Please determine if O=C1\C=C(/OC2=C1C=CC=C2C3=CC=CC=C3)N4CCOCC4 is below 90% in terms of cell viability.
criterion met

Please check: cell viability for COCCOC(=O)C/1=C(C)/NC/2=C(C1C3=CC=CC(=C3)O)/C(=O)CC(C2)C4=C(OC)C=CC=C4 (stereo not given) , strictly under 90% or not?
criterion not met

---

System: P12-Ichikawa
Assay protocol: cell viability relative to DMSO control; higher = less cytotoxic
Protocol conditions: RPMI 5 mM glucose + 10% FBS; 48 h; 0.0632 µM
Experimental readout: cell viability
Your reply should be a number followed by the unit it is expressed in.

Answer with cell viability of Nc1nc(-c2nn(Cc3ccccc3F)c3ncccc23)nc(N)c1N1CCOCC1 measured for P12-Ichikawa.
107%

Report its cell viability with P12-Ichikawa as the test system: Cl.c1cnc2cc3c(cc2n1)C1CNCC3C1
122%

Look up P12-Ichikawa data: cell viability of CC(C)(C)OC(=O)CN(Cc1ccc(Cl)cc1)Cc1ccc([N+](=O)[O-])s1 , then report it.
88.2%

State, for P12-Ichikawa, measured cell viability of the compound listed here: Nc1ccccc1NC(=O)c1ccc(CNc2nccc(-c3cccnc3)n2)cc1
111%

GET cell viability where system = P12-Ichikawa and item = COc1cc(N2CCC(C(N)=O)CC2)ccc1Nc1nc(N)c(Cl)c(Nc2ccccc2[S+](=O)([O-])C(C)C)n1
103%

State measured cell viability of the compound COCCOC(=O)C/1=C(C)/NC/2=C(C1C3=CC=CC(=C3)O)/C(=O)CC(C2)C4=C(OC)C=CC=C4 (configuration not stated) with P12-Ichikawa.
118%

Give P12-Ichikawa cell viability for the following compound: O=[N+]([O-])c1cn2c(n1)OC[C@@H](OCc1ccc(OC(F)(F)F)cc1)C2
131%

Report cell viability under test system P12-Ichikawa for CC(C)(C)/[N+]([O-])=C/c1ccc([S+](=O)([O-])[O][Na])cc1[S+](=O)([O-])[O][Na] .
120%

Please report the measured cell viability for O=C1\C=C(/OC2=C1C=CC=C2C3=CC=CC=C3)N4CCOCC4 tested on P12-Ichikawa.
91.5%

Fetch value of cell viability on P12-Ichikawa for COc1cc2ncnc(-n3nc(-c4ccccn4)nc3N)c2cc1OC .
98%

State measured cell viability of the compound O=C(Cc1cccc(OC(F)(F)F)c1)Nc1ccc(CCCCc2nnc(NC(=O)Cc3ccccn3)s2)nn1 with P12-Ichikawa.
103%

Provide cell viability, tested on P12-Ichikawa, for COc1cc(N2CCC(O)CC2)ccc1Nc1cc(Nc2ccccc2[S+](=O)([O-])C(C)C)c2cc[nH]c2n1 .
87.2%

---

Kindly supply the reported cell viability values for the records listed here.
Test system: P12-Ichikawa
Assay protocol: cell viability relative to DMSO control; higher = less cytotoxic
Protocol conditions: RPMI 5 mM glucose + 10% dialyzed FBS; 48 h; 0.0632 µM
Reply with just the number (in %).

Report cell viability, nothing else, for this compound: Cc1c[nH]c(/C=C2\C(=O)Nc3ccccc32)c1CCC(=O)O
105

Assign cell viability to the following record: CC(C)(C)/[N+]([O-])=C/c1ccc([S+](=O)([O-])[O][Na])cc1[S+](=O)([O-])[O][Na]
113

Using known records, supply cell viability for COc1ccc(Cc2nccc3cc(OC)c(OC)cc23)cc1OC
123

Could you please provide reported cell viability for CNC(=O)[C@H](Cc1ccccc1)NC(=O)[C@H](CC(C)C)[C@H](CSc1cccs1)C(=O)NO ? Thanks!
84.3

Quick one: give measured cell viability for CC(C)C[C@H](CN)CC(=O)O
97.1

State its cell viability for this compound: Fc1cc(-c2cccc3ncc(-c4cnn(C5CCNCC5)c4)nc23)cc(F)c1CN1CCOCC1
110

---

Test system: P12-Ichikawa
Assay protocol: cell viability relative to DMSO control; higher = less cytotoxic
Protocol conditions: RPMI 5 mM glucose + 10% FBS; 48 h; 0.569 µM
Experimental readout: cell viability (%)
Kindly provide the numeric value in % only, without the unit symbol.

Answer with reported cell viability of ClC1=CC=C(CCCOC/2=N/NC(=O)C(=C2NCC3=CN=CC=C3)/Br)C=C1
113

For the molecule C[C@@H]1C[C@H]2[C@@H]3\C=C(C)/C4=C/C5=C(C[C@]4(C)[C@H]3[C@@H](O)C[C@]2(C)[C@@]1(O)C(=O)COC(C)=O)C=N[N]5C6=CC=CC=C6 , give its reported cell viability.
45.6

Specify cell viability for C[N]1C=NC=C1[C@@](N)(C2=CC=C(Cl)C=C2)C3=CC=C4N(C)C(=O)\C=C(\C5=CC=CC(=C5)Cl)C4=C3 and stop.
82.9

Consider the molecule CC/1=C/N([C@@H]2C[C@@H](O)[C@H](CO)O2)C(=O)NC1=O . State its measured cell viability.
90.2

Supply measured cell viability of CC(C)(C)/[N+]([O-])=C/c1ccc([S+](=O)([O-])[O][Na])cc1[S+](=O)([O-])[O][Na] in your reply.
127

Supply recorded cell viability for O=C1Nc2ccccc2/C1=C1\Nc2ccccc2C1=O here.
104

Supply cell viability value. Item: Cc1c[nH]c(/C=C2\C(=O)Nc3ccccc32)c1CCC(=O)O
95.2

Give the value of cell viability reported for the following: Cc1cc(Nc2ncc(Cl)c(Nc3ccccc3[S+](=O)([O-])C(C)C)n2)c(OC(C)C)cc1C1CCNCC1
108

State its cell viability for this molecule: O=C(NC1CCNCC1)c1n[nH]cc1NC(=O)c1c(Cl)cccc1Cl
111

Find the measured cell viability of C[C@H]1CN(C[C@@H](C)O1)CC(=O)NC2=CC=C3SC4=C(CC3=C2)C=CC=C4\C5=C\C(=O)\C=C(/O5)N6CCOCC6 and report it.
114

For the molecule O=C(O)[C@H](Cc1c[nH]c2ccccc12)N1C(=O)c2ccccc2C1=O , give its reported cell viability.
103

Look up and report measured cell viability for this entry: CCOC(=O)Nc1ccc(NCc2ccc(F)cc2)cc1N
118

Return value of cell viability for input NC(=O)c1ccc(-c2nc(-c3ccc4c(c3)OCCO4)c(-c3ccccn3)[nH]2)cc1 , no commentary.
118

For the molecule C[C@]\1(CCS\C(=N1)N)C2=CC(=C(F)C=C2F)C3=CN=CN=C3 , give its reported cell viability.
121

---

System: P12-Ichikawa
Assay protocol: cell viability relative to DMSO control; higher = less cytotoxic
Protocol conditions: RPMI 5 mM glucose + 10% FBS; 48 h; 0.000781 µM
Experimental readout: cell viability (%)
Answer with a number only, understood to be in %.

State, in one line, measured cell viability of Nc1nc(-c2nn(Cc3ccccc3F)c3ncccc23)nc(N)c1N1CCOCC1
93.1

Name the recorded cell viability of the item CN1C(=O)\C(=C/C(=C1/NC2=C(F)C=C(I)C=C2)C(=O)NOCCO)C in your answer.
98.2

Look up cell viability of COc1cc2nccc(Oc3ccc(NC(=O)C4(C(=O)Nc5ccc(F)cc5)CC4)cc3)c2cc1OC and report it.
112
